We begin with pIC50 values for RON (Homo sapiens, UniProt Q04912), as collected from the published literature.
pIC50: −log10 of the molar value.

Some solved entries appear below for comparison.
{"compound": "O=C1NCc2c(Oc3ccc(NC(=O)c4cccc(C(F)(F)F)c4F)cc3F)ccnc2N1", "pIC50": "7.00 to 8.00"}
{"compound": "C[C@@H](Oc1cc2sc(NC(=O)NCCN3CCOCC3)nc2cc1F)c1c(Cl)ccc(F)c1Cl (single isomer, unassigned)", "pIC50": "> 6.30"}
{"compound": "Nc1ncc(-c2cnn([C@@H]3CN[C@@H](C(=O)N4CCC(O)C4)C3)c2)cc1-c1nc2ccccc2s1 (stereo partly drawn)", "pIC50": "6.00 to 7.00"}

Each compound below has a recorded value; state its pIC50.
1. CC(Oc1ccc2nc(NC(=O)NCCCN3CCCCCC3)sc2c1)c1c(Cl)ccc(F)c1Cl (stereo not drawn)
2. CC(C(=O)N1CCC(O)CC1)n1cc(-c2cnc(N)c(-c3nc4ccccc4s3)c2)cn1 (stereo not drawn)
3. Nc1ncc(-c2ccc(C(=O)N3CCOCC3)cc2)cc1-c1nc2ccccc2s1
4. CC(Oc1cc2sc(NC(=O)NCCN3CCOCC3)nc2cc1F)c1c(F)ccc(Cl)c1Cl (single isomer, unassigned)

Reply |
1: > 6.30; 2: 6.00 to 7.00; 3: 4.70 to 6.00; 4: > 6.30

Each compound below has a recorded value; state its pIC50.
1. CCN(CC)C(=O)c1ccc(-c2cnc(N)c(-c3nc4ccccc4s3)c2)cc1
2. Nc1ncc(-c2cnn(C3CCNCC3)c2)cc1-c1nc2ccc(C(F)(F)F)cc2s1
3. Nc1ncc(-c2cnn(C3CCNCC3)c2)cc1N1CCc2c(F)cccc2C1
4. NC(=O)c1ccc(-c2cnc(N)c(-c3nc4ccccc4s3)c2)cc1
5. CC(Oc1cc2sc(NC(=O)NCCN3CCOCC3)nc2cc1F)c1c(Cl)ccc(F)c1Cl (stereo not drawn)

Reply |
1. < 4.70
2. 6.00 to 7.00
3. 4.70 to 6.00
4. < 4.70
5. > 6.30
